target: T1, cloned human SRIF receptor SSTR3 (human, UniProt P32745 1-418); assay: radioligand displacement (125I-[Leu8,D-Trp22,Tyr25]SRIF-28), membrane pellet sections
T1 construct: whole, on cells; assayed as cryostat sections of membrane pellets of the transfected cells; also called hSSTR3
T1 sequence (P32745 whole entry): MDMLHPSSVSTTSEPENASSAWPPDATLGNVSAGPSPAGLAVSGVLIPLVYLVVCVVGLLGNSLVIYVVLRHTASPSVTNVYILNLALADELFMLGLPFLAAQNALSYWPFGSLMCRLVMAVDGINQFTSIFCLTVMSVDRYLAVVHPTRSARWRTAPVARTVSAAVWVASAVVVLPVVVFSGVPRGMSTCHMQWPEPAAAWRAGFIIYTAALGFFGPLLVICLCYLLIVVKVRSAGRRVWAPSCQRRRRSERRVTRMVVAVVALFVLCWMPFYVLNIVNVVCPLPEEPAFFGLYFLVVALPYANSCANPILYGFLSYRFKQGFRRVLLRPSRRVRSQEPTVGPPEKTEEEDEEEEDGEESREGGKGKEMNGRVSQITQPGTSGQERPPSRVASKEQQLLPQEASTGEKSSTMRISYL
Bridge positions count the residues as written; N and C are the ends. Square brackets hold non-standard residues; d marks the D form. Ends that are not written are not given here. * marks the point of attachment. d2Nal(3S-Me) = C[C@@H](c1ccc2ccccc2c1)[C@@H](N)C(=O)O; Phe(4-CH2NH2) = NCc1ccc(C[C@H](N)C(=O)O)cc1; Tyr(127I) = tyrosine iodinated with ^127I; Phe(4-NH2) = Nc1ccc(C[C@H](N)C(=O)O)cc1; Carbamoyl = NC(=O)*
Binary label based on IC50 with cut-off 300 nM: below gives 1.0, not below gives 0.0.

[[record]]
binder = "H-YCF[Phe(4-NH2)][dW]KTFC-OH (disulfide 2-9, synthetic cyclic nonapeptide; also called Peptide No. 7) [(cyclo)H-Tyr-Cys-Phe-4Aph-D-Trp-Lys-Thr-Phe-Cys-OH]"
assigned_label = 1.0

[[record]]
binder = "[Tyr(127I)]CFAWKTFC (disulfide 2-9, also called Peptide No. 13A; the I-Tyr^2 analog) [Peptide No. 13 iodinated with ^127I]"
assigned_label = 0.0

[[record]]
binder = "H-CFY[d2Nal(3S-Me)]KTFC-OH (disulfide 1-8; SMILES C[C@@H](O)[C@@H]1NC(=O)[C@H](CCCCN)NC(=O)[C@@H]([C@@H](C)c2ccc3ccccc3c2)NC(=O)[C@H](Cc2ccc(O)cc2)NC(=O)[C@H](Cc2ccccc2)NC(=O)[C@@H](N)CSSC[C@@H](C(=O)O)NC(=O)[C@H](Cc2ccccc2)NC1=O, also called Peptide No. 17) [(cyclo)H-Cys-Phe-Tyr-threo-(2R,3S)C^βMe-2Nal-Lys-Thr-Phe-Cys-OH]"
assigned_label = 1.0


Input Carbamoyl-YCF[Phe(4-CH2NH2)]WKTFC-OH (disulfide 2-9, synthetic cyclic nonapeptide; also called Peptide No. 15A) [(cyclo)Cbm-Tyr-Cys-Phe-Amp-Trp-Lys-Thr-Phe-Cys-OH] ; condition: IC50 strictly below 300 nM. Does it hold?
1.0

Hello, is IC50 of the following binder strictly smaller than 300 nM? H-CFAWKTFC-OH (disulfide 1-8; SMILES C[C@@H]1NC(=O)[C@H](Cc2ccccc2)NC(=O)[C@@H](N)CSSC[C@@H](C(=O)O)NC(=O)[C@H](Cc2ccccc2)NC(=O)[C@H]([C@@H](C)O)NC(=O)[C@H](CCCCN)NC(=O)[C@H](Cc2c[nH]c3ccccc23)NC1=O, synthetic cyclic octapeptide; also called Peptide No. 12) [des-AA^1,2,4,5,12,13-[Ala^7]SRIF, (cyclo)H-Cys-Phe-Ala-Trp-Lys-Thr-Phe-Cys-OH]
0.0

Say whether its IC50 is strictly beneath 300 nM. Entry: H-CFA[dW]KTFC-OH (disulfide 1-8; SMILES C[C@@H]1NC(=O)[C@H](Cc2ccccc2)NC(=O)[C@@H](N)CSSC[C@@H](C(=O)O)NC(=O)[C@H](Cc2ccccc2)NC(=O)[C@H]([C@@H](C)O)NC(=O)[C@H](CCCCN)NC(=O)[C@@H](Cc2c[nH]c3ccccc23)NC1=O, synthetic cyclic octapeptide; also called Peptide 11; Peptide No. 11) [(cyclo)H-Cys-Phe-Ala-D-Trp-Lys-Thr-Phe-Cys-OH]
0.0
